assay: Aqueous solubility of the compound in pH 7.4 phosphate buffer by LC-UV analysis; type: physicochemical
Decide by solubility: equal to or exceeding 400 µM means fulfilled, less means not fulfilled.

- NC(=O)c1ccc(N[C@H]2CCCNC2)c2cc(-c3ccc(F)cc3)[nH]c12: not fulfilled
- NC(=O)c1cnc(N[C@H]2CCCNC2)c2cc(-c3ccccc3)oc12: fulfilled
- NC(=O)c1cnc(N[C@H]2CCCNC2)c2cc(-c3ccccc3)sc12: fulfilled
- NC(=O)c1cnc(N[C@H]2CCCNC2)c2cc(-c3cccs3)sc12: fulfilled
- NC(=O)c1ccc(N[C@H]2CCCNC2)c2cc(-c3ccc(Cl)cc3)[nH]c12: not fulfilled
- NC(=O)c1ccc(N[C@H]2CCCNC2)c2cc(-c3ccccc3)[nH]c12: not fulfilled
- NC(=O)c1cnc(N[C@H]2CCCNC2)c2cc(-c3cccc(F)c3)sc12: not fulfilled
- NC(=O)c1cnc(N[C@H]2CCCNC2)c2cc(-c3ccsc3)sc12: fulfilled
- NC(=O)Nc1sc(-c2ccccc2)cc1C(=O)N[C@H]1CCCNC1: fulfilled
